Data credit: PubChem BioAssay (EPA / NIEHS)

Target: Aryl hydrocarbon receptor (Homo sapiens)
Experiment: ATG_Ahr_CIS: Attagene CIS-FACTORIAL HepG2 Assay for human Aryl Hydrocarbon Receptor (Ahr) (AID 2282930)
Details: HepG2 AhR cis-factorial reporter transcription; actives raise or lower the signal
Calls of active or inactive are those of the source. Rule for the calls: active = hit-call score of the fitted dose curve at least 0.9, where 1 is the maximum; inactive = score below 0.9.
Could you please pick one outcome from this set? active, inactive

# COMPOUND, CATEGORY
rows = [
    ("Oc1ccc(Cl)cc1Cc1cc(Cl)ccc1O", "inactive"),
    ("C=CC(C)(CCC=C(C)C)OC(=O)CC(C)C (stereo unspecified)", "inactive"),
    ("CCCOCCOCCOCCO", "inactive"),
]

Query: Given CC(C)CC(O)Cc1ccccc1 (stereo unspecified) , state the outcome it received in this test.
Result: inactive

Query: Given CC(C)c1ccc(C=O)cc1 , state the outcome it received in this test.
Result: inactive

---

Experiment: ACEA_AR_antagonist_AUC_viability: ACEA Biosciences xCELLigence Real-Time Cell Analysis on Androgen Receptor Antagonism for Viability (AID 2283776);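 note: 22Rv1 human prostate cancer cells growing on impedance electrode plates; area under impedance growth curve at 80 h after dosing as viability; hits lower the growth signal relative to DMSO meaning cytotoxicity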
Records with an inconclusive call do not appear. Active and inactive are the calls of the source. The calls were made as follows: active = hit-call score of the fitted dose curve at least 0.9, where 1 is the maximum; inconclusive = response in the unintended direction; inactive = score below 0.9.
OBSERVED_PROPERTY: AC50

Here's what some known entries look like.
# LINE_NOTATION, AC50
data = [
    ("C=C[Si](C)(C)O[Si](C)(C)C=C", "inactive"),
    ("c1ccc2c(c1)ccc1cc3c(ccc4ccccc43)cc12", "0.287 µM (active)"),
    ("CCCc1ccc(OC)cc1", "inactive"),
    ("CN(C)c1ccc(C(=N)c2ccc(N(C)C)cc2)cc1", "3.19 µM (active)"),
]

Query: Could you please provide reported AC50 for c1c[nH]cn1 ? Thanks!
Result: inactive

Query: Could you please provide reported AC50 for CNC(=S)NN ? Thanks!
Result: inactive

Query: Could you please provide reported AC50 for O=C(C(Cl)Cl)N1CCOC12CCCCC2 ? Thanks!
Result: 11 µM (active)

Query: Could you please provide reported AC50 for CCCCCCCCO[C@@H]1O[C@H](CO)[C@@H](O)[C@H](O)[C@H]1O ? Thanks!
Result: inactive

Query: Could you please provide reported AC50 for CC(=O)OC(C)C ? Thanks!
Result: inactive

Query: Could you please provide reported AC50 for CCCCC/C=C\CCC=O ? Thanks!
Result: inactive

---

Assay: TOX21_p53_BLA_p4_viability: Viability Assessment in the Tox21 HCT-116 p53 Agonism Beta-lactamase Assay, Phase 4 (AID 2283597);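 note: hits lower the luminescence signal meaning cytotoxicity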
Inconclusive results are not listed. Calls of active or inactive are those of the source. Rule for the calls: active = hit-call score of the fitted dose curve at least 0.9, where 1 is the maximum; inconclusive = response in the unintended direction; inactive = score below 0.9.
Could you please pick one outcome from this set? active, inactive

Query: Given C/C=C\C/C=C/CCCCCCCCOC(C)=O , state the outcome it received in this test.
Result: inactive

Query: Given [Cl][Bi]([Cl])([c]1ccccc1)([c]1ccccc1)[c]1ccccc1 , state the outcome it received in this test.
Result: active

Query: Given CCCCCCCCC(=O)OCC , state the outcome it received in this test.
Result: inactive

Query: Given O=C1CCCC(=O)O1 , state the outcome it received in this test.
Result: inactive

Query: Given CC(C)CC(O)Cc1ccccc1 (stereo not drawn) , state the outcome it received in this test.
Result: inactive

Query: Given CNC(=S)N(C)C , state the outcome it received in this test.
Result: inactive

Query: Given OC1CCCCCCCCCCC1 , state the outcome it received in this test.
Result: inactive

Query: Given O=c1[nH]nc(-c2ccc([N+](=O)[O-])o2)o1 , state the outcome it received in this test.
Result: inactive

Query: Given Cc1cccc(N)n1 , state the outcome it received in this test.
Result: inactive

---

Target: Estrogen receptor (Homo sapiens) (UniProt P03372)
Sequence (P03372 whole entry, looked up, the tested form may be a part): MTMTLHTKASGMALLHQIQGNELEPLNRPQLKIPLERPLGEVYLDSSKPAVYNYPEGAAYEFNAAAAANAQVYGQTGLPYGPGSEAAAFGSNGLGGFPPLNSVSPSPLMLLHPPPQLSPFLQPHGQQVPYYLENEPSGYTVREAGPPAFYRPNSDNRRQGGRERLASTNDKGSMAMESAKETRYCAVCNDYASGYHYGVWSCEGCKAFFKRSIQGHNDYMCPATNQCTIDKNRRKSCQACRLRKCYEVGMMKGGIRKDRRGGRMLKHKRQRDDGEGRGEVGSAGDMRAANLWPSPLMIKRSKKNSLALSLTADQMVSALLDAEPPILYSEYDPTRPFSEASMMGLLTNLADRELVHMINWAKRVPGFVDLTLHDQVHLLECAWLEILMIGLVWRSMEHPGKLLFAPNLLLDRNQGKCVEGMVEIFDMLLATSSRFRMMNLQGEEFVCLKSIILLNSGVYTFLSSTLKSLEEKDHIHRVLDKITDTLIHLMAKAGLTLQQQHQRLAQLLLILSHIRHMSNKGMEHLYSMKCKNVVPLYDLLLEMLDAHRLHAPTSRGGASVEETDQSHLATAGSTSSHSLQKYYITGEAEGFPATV
Test: OT_ER_ERaERa_0480: Odyssey Thera (OT) 8-hour HEK293T Protein-Complementation Assay for Estrogen Receptor-alpha/-alpha Homodimer (AID 2283351);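 note: rise in fluorescence from reassembled reporter fragments on ERα LBD homodimer in nucleus or whole cell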
Records with an inconclusive call do not appear. Activity calls are given as the source filed them. Rule for the calls: active = hit-call score of the fitted dose curve at least 0.9, where 1 is the maximum; inconclusive = response in the unintended direction; inactive = score below 0.9.
OBSERVED_PROPERTY: outcome

Here's what some known entries look like.
# LINE_NOTATION, OBSERVED_PROPERTY, RESULT
data = [
    ("OC1CCCCCCCCCCC1", "outcome", "inactive"),
    ("C=C[Si](C)(C)O[Si](C)(C)C=C", "outcome", "inactive"),
    ("CCCCC/C=C\\C/C=C\\CCCCCCCC(=O)OC", "outcome", "inactive"),
    ("CCCCCCCCCCCCCOP(=O)(O)O", "outcome", "inactive"),
    ("CCCCCCCCO[C@@H]1O[C@H](CO)[C@@H](O)[C@H](O)[C@H]1O", "outcome", "inactive"),
]

Query: Could you please provide reported outcome for CC(C)C1=CC2=CC[C@@H]3[C@](C)(CCC[C@@]3(C)C(=O)O)[C@H]2CC1 ? Thanks!
Result: inactive

---

Test: ATG_ISRE_CIS: Attagene CIS-FACTORIAL HepG2 Assay for human Interferon Regulatory Factor 1 (IRF1) binding to an Interferon-Stimulated Response Element (ISRE) (AID 2282948)
Conditions: HepG2 ISRE cis-reporter (Attagene), mRNA transcription readout; actives raise or lower the signal
Active and inactive are the calls of the source. Rule for the calls: active = hit-call score of the fitted dose curve at least 0.9, where 1 is the maximum; inactive = score below 0.9.
Could you please pick one outcome from this set? 1 (yes) for active, 0 (no) for inactive

Before answering, review these 2 worked examples.
# COMPOUND, CATEGORY
records = [
    ("O=C1CCCN1CCO", "0 (no)"),
    ("Nc1cccc(C(F)(F)F)c1", "0 (no)"),
]

Now look at this one.
Query: Given Cc1cccc(N)n1 , state the outcome it received in this test.
Result: 0 (no)

---

Experiment: ACEA_ER_AUC_viability: ACEA Biosciences xCELLigence Real-Time Cell Analysis on Estrogen Receptor Agonism for Viability (AID 2283782);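 note: continuous compound exposure with impedance area under curve over 80 h; hit means loss of impedance signal meaning reduced cell growth or viability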
Description: ACEA_ER is a cell-based, single-readout assay that uses T47D, a human breast cell line, with measurements taken at 80 hours after chemical dosing in a 96-well plate, although TO2 (mc0.srcf) used a 384-well plate. Differences in plate size can be ignored given data normalization.ACEA_ER_AUC_viability is one of two assay component(s) measured or calculated from the ACEA_ER assay. […]
Inconclusive results are not listed. The source made the active and inactive calls. Rule for the calls: active = hit-call score of the fitted dose curve at least 0.9, where 1 is the maximum; inconclusive = response in the unintended direction; inactive = score below 0.9.
Could you please pick one outcome from this set? yes (1) = active, no (0) = inactive

Query: Given Cc1ccc(N/N=c2\c(=O)cc/c(=N/Nc3ccc(S(=O)(=O)O)cc3)c2=O)c(C)c1 , state the outcome it received in this test.
Result: no (0)

---

Target: Hepatocyte nuclear factor 6 (Homo sapiens) (UniProt Q9UBC0)
Sequence (Q9UBC0 whole entry, looked up): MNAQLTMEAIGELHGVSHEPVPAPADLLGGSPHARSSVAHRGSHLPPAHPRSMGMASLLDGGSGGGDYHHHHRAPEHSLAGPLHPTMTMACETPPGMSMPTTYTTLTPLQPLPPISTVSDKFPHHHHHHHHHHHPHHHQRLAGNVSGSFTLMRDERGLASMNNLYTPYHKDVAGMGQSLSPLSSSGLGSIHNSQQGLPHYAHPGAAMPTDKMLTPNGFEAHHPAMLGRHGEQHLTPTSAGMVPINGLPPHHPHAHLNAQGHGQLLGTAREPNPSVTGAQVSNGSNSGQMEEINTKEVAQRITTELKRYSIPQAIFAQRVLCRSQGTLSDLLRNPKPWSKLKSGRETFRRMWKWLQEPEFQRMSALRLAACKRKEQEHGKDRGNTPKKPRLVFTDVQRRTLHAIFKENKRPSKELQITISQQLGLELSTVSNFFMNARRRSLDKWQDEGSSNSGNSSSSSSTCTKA
Assay: ATG_HNF6_CIS: Attagene CIS-FACTORIAL HepG2 Assay for human Hepatocyte Nuclear Factor 6 (HNF6) (AID 2282952)
Conditions: HepG2 Attagene cis-factorial HNF6 reporter transcription; actives raise or lower the signal
Activity calls are given as the source filed them. How the source made its calls: active means hit-call score of the fitted dose curve at least 0.9, where 1 is the maximum; inactive means score below 0.9.
Could you please pick one outcome from this set? active, inactive

# COMPOUND, CATEGORY
measured = [
    ("CCOc1ccc(N)c([N+](=O)[O-])c1", "inactive"),
    ("Cc1cc(O)c(Cl)c(C)c1Cl", "inactive"),
    ("Oc1ccc(Cl)cc1Cc1cc(Cl)ccc1O", "inactive"),
    ("CC(C)c1ccc(C#N)cc1", "inactive"),
    ("Cc1cc(C)c(C)c(O)c1", "inactive"),
]

Query: Given COc1ccc(NC(C)=O)cc1N , state the outcome it received in this test.
Result: inactive

Query: Given CC(C)(C)C(=O)C=Cc1ccc(Cl)cc1 , state the outcome it received in this test.
Result: active

Query: Given C=C[C@](C)(O)CC[C@@H]1[C@@]2(C)CCCC(C)(C)[C@@H]2CC[C@@]1(C)O , state the outcome it received in this test.
Result: inactive

---

Experiment: ATG_PBREM_CIS: Attagene CIS-FACTORIAL HepG2 Assay for human Phenobarbital-responsive Enhancer Module (PBREM) (AID 2282955)
Conditions: HepG2 PBREM cis-reporter, Attagene multiplexed transcription; actives raise or lower the signal
Active and inactive are the calls of the source. Rule for the calls: active = hit-call score of the fitted dose curve at least 0.9, where 1 is the maximum; inactive = score below 0.9.
Could you please pick one outcome from this set? y for active, n for inactive

Before answering, review these 3 worked examples.
# COMPOUND, CATEGORY
records = [
    ("COCC(C)N (stereo unspecified)", "n"),
    ("CC(C)c1ccc(C=O)cc1", "n"),
    ("O=CC1CC1", "n"),
]

Query: Given CCOC(=O)CC , state the outcome it received in this test.
Result: n

Query: Given SCCc1cnccn1 , state the outcome it received in this test.
Result: n

Query: Given O=C(/C=C/C=C/c1ccc2c(c1)OCO2)N1CCCCC1 , state the outcome it received in this test.
Result: n

Query: Given O=c1[nH]nc(-c2ccc([N+](=O)[O-])o2)o1 , state the outcome it received in this test.
Result: n

Query: Given CO[Si](CCC1CCC2OC2C1)(OC)OC (stereo unspecified) , state the outcome it received in this test.
Result: n

Query: Given NNC(=O)c1cccc(C(=O)NN)c1 , state the outcome it received in this test.
Result: n

Query: Given O=c1cc(-c2ccccc2)oc2ccccc12 , state the outcome it received in this test.
Result: y

Query: Given O=C1C(N(CO)C(=O)NCO)N(CO)C(=O)N1CO (stereo unspecified) , state the outcome it received in this test.
Result: n

Query: Given O=C1CC2CC1C1CCCC21 (stereo unspecified) , state the outcome it received in this test.
Result: n

Query: Given CN(C)c1ccc(C(=N)c2ccc(N(C)C)cc2)cc1 , state the outcome it received in this test.
Result: y

Query: Given Nc1ccc(N=Nc2ccccc2)c(N)n1 , state the outcome it received in this test.
Result: n

Query: Given CC(C)c1ccc(C#N)cc1 , state the outcome it received in this test.
Result: n

Query: Given O=c1c2ccccc2nnn1CCl , state the outcome it received in this test.
Result: n

Query: Given COC=O , state the outcome it received in this test.
Result: n
